Each recorded value in this set is attributed to ChEMBL document CHEMBL3507680.

assay: Human HepG2 cell viability assay in 384 well format; type: toxicity, cell-based; parameters: dose 125 nL, time 70.5 hour; concentration not given beside the values; conditions: HepG2 cells, read-out: Inhibition

- COMPOUND: "O=C(Nc1cnc(C2CC2)nc1)N1CCC(CN2CCCC2)C1 (stereo not given)"
  cytotoxicity at 70.5 h [%]: 17.5
- COMPOUND: "CS(=O)(=O)c1ccc(C(=O)N2CCCC(n3cccn3)C2)cc1 (stereo not given)"
  cytotoxicity at 70.5 h [%]: 0.802
- COMPOUND: "CCN(CCC(=O)NC1CC1)Cc1ccc(Cl)s1"
  cytotoxicity at 70.5 h [%]: -11.3
- COMPOUND: "CC1CCCN1Cc1ccccc1-c1nc(C(C)(C)C)cc(=O)[nH]1 (stereo not given)"
  cytotoxicity at 70.5 h [%]: 31.4
- COMPOUND: "Cc1nc(C)c2c(n1)CCN(Cc1ccco1)CC2"
  cytotoxicity at 70.5 h [%]: 2.27
- COMPOUND: "CC(C)c1nccn1C1CCCN(C(=O)c2nccnc2N)C1 (stereo not given)"
  cytotoxicity at 70.5 h [%]: 17.2
- COMPOUND: "CCN(CC)C(=O)Cn1ccc2cc(NC(=O)C3CC3)ccc21"
  cytotoxicity at 70.5 h [%]: 7.86
- COMPOUND: "O=C(NCc1ccccc1Cn1cncn1)C1CCCCC1"
  cytotoxicity at 70.5 h [%]: -9.09
- COMPOUND: "O=C(Cc1ccc2c(c1)CCC2)N1CCCC(n2cccn2)C1 (stereo not given)"
  cytotoxicity at 70.5 h [%]: -6.54
- COMPOUND: "NC(=O)CC1CCN(C(=O)c2cccn2Cc2cccs2)CC1"
  cytotoxicity at 70.5 h [%]: 3.87
- COMPOUND: "CCOc1cccc2c1OCC(=O)N(c1ccc(N(C)C)cc1)C2"
  cytotoxicity at 70.5 h [%]: -8.85
- COMPOUND: "CCc1c(C)nc2cc(C3CCN(Cc4ccc(F)cc4)C3)nn2c1O (stereo not given)"
  cytotoxicity at 70.5 h [%]: -5.42
- COMPOUND: "CC(C)c1cncnc1N1CC[C@H](N2CCOCC2)[C@H](CCCO)C1"
  cytotoxicity at 70.5 h [%]: -9.63
- COMPOUND: "CCc1nc(C2CCCN2Cc2cc(=O)n(C)c(=O)n2C)no1 (stereo not given)"
  cytotoxicity at 70.5 h [%]: -16.4
- COMPOUND: "Cc1cn([C@@H]2CC3(CCNCC3)OC[C@@]2(C)O)c(=O)[nH]c1=O"
  cytotoxicity at 70.5 h [%]: 0.487
- COMPOUND: "CCOC(=O)C(C)NC(=O)CCc1ccc(F)cc1 (stereo not given)"
  cytotoxicity at 70.5 h [%]: 1.35
- COMPOUND: "CCSCCC(=O)NCc1cc2n(n1)CCN(C(=O)N(C)C)C2"
  cytotoxicity at 70.5 h [%]: -6.68
- COMPOUND: "CNc1ccc(C)cc1C(=O)N[C@H]1C[C@H]2CN(C)CCN2C1"
  cytotoxicity at 70.5 h [%]: -13.3
- COMPOUND: "Cn1ccc(-c2cc(C(=O)N3CCOCC3)c3ccccn23)n1"
  cytotoxicity at 70.5 h [%]: 3.83
- COMPOUND: "CN(C)CCOCc1ncn2c1CN(c1ncc(F)cn1)CCC2"
  cytotoxicity at 70.5 h [%]: -3.65
- COMPOUND: "CCN(CC)Cc1cnc2n1CCN(Cc1c(C)noc1C)CC2"
  cytotoxicity at 70.5 h [%]: 5.41
- COMPOUND: "Cn1ncc2c1NC(=O)CC2c1ccc(Cl)cc1Cl (stereo not given)"
  cytotoxicity at 70.5 h [%]: -15
- COMPOUND: "CCOc1ccccc1CSCCn1nc2ccccn2c1=O"
  cytotoxicity at 70.5 h [%]: -10.1
- COMPOUND: "O=C(O)C1CCCN(C(=O)CCn2ccc3c(Cl)cccc32)C1 (stereo not given)"
  cytotoxicity at 70.5 h [%]: -17.2
- COMPOUND: "Cc1cccc(C(=O)N2CCCn3cnc(CN4CCCC4=O)c3C2)n1"
  cytotoxicity at 70.5 h [%]: 30.9
- COMPOUND: "CN(C(=O)CCc1ccsc1)S(C)(=O)=O"
  cytotoxicity at 70.5 h [%]: 6.34
- COMPOUND: "CSc1ncccc1C(=O)NCc1ccc(CS(=O)(=O)NC(C)C)cc1"
  cytotoxicity at 70.5 h [%]: 2.32
- COMPOUND: "FC(F)(F)c1ccccc1CCC1CCCN(Cc2cscn2)C1 (stereo not given)"
  cytotoxicity at 70.5 h [%]: 44.3
- COMPOUND: "CC(C)(C)C(N)c1nc(-c2nnc[nH]2)no1 (stereo not given)"
  cytotoxicity at 70.5 h [%]: -2.07
- COMPOUND: "CN(Cc1ccc(F)cc1)CC1(O)CCN(C(=O)c2cccs2)C1 (stereo not given)"
  cytotoxicity at 70.5 h [%]: 2.73
- COMPOUND: "CNS(=O)(=O)C1CCN(c2cc(C(C)C)nc(C(C)C)n2)C1 (stereo not given)"
  cytotoxicity at 70.5 h [%]: -6.44
- COMPOUND: "CCn1nc(C)c2c1cnn2CCNS(=O)(=O)c1cccs1"
  cytotoxicity at 70.5 h [%]: 4.54
- COMPOUND: "CNC(=O)[C@H]1C[C@@H]2CN(C(=O)c3cncc(C)c3)C[C@@H]2N1C"
  cytotoxicity at 70.5 h [%]: -16.6
- COMPOUND: "CCc1ccc(NC(=O)N2C[C@H]3C[C@H](C(=O)NC4CCC4)[C@@H](C2)O3)cc1"
  cytotoxicity at 70.5 h [%]: 8.99
- COMPOUND: "Cc1nccnc1N1C[C@H]2CN(C3CCOCC3)C[C@@]2(C(=O)O)C1"
  cytotoxicity at 70.5 h [%]: 2.61
